- Target Entity: Melanocortin receptor 5 (Mus musculus)
- Test Description: Agonist activity at mouse melanocortin receptor 5 expressed in HEK293 cells assessed as stimulation of intracellular cAMP accumulation incubated for 24 hrs by beta-galactosidase reporter gene assay
Readout Name: EC50 (µM)

Previously resolved entries follow.
- CC(C)CCCN1C(=N)N([C@H](CC2CCCCC2)CN2CCC[C@H]2CN2C(=N)NC[C@H]2C(C)C)C[C@H]1[C@@H](C)O: 0.74
- CC(C)CCCN1C(=N)N([C@H](CC2CCCCC2)CN2CCC[C@H]2CN2C(=N)NC[C@H]2C(C)C)C[C@H]1C(C)C: 1.7
- CC(C)[C@@H]1CNC(=N)N1C[C@@H]1CCCN1C[C@@H](Cc1ccccc1)N1C[C@@H](C(C)C)N(CC23CC4CC(CC(C4)C2)C3)C1=N: 0.66
- CC(C)CCCN1C(=N)N([C@H](CC2CCCCC2)CN2CCC[C@H]2CN2C(=N)NC[C@H]2CC(C)C)C[C@H]1[C@@H](C)O: 0.63
- CC(C)C[C@@H]1CNC(=N)N1C[C@@H]1CCCN1C[C@@H](CC1CCCCC1)N1C[C@@H](C(C)C)N(CC2CCC(C(C)(C)C)CC2)C1=N (stereo partly drawn): 0.56

(A) CC(C)C[C@@H]1CNC(=N)N1C[C@@H]1CCCN1C[C@@H](Cc1ccccc1)N1C[C@@H](C(C)C)N(CC23CC4CC(CC(C4)C2)C3)C1=N
(B) CC(C)CCCN1C(=N)N([C@H](Cc2ccccc2)CN2CCC[C@H]2CN2C(=N)NC[C@H]2C(C)C)C[C@H]1C(C)C
(C) CC(C)C[C@@H]1CNC(=N)N1C[C@@H]1CCCN1C[C@@H](Cc1ccccc1)N1C[C@@H]([C@@H](C)O)N(CC23CC4CC(CC(C4)C2)C3)C1=N
[Q] Please list these in order of increasing EC50. Thank you! A complete answer lists every label in the requested sequence.
[A] A, C, B

====

- Target Entity: Melanocortin receptor 4 (Mus musculus, UniProt P56450)
- Sequence (P56450 whole entry): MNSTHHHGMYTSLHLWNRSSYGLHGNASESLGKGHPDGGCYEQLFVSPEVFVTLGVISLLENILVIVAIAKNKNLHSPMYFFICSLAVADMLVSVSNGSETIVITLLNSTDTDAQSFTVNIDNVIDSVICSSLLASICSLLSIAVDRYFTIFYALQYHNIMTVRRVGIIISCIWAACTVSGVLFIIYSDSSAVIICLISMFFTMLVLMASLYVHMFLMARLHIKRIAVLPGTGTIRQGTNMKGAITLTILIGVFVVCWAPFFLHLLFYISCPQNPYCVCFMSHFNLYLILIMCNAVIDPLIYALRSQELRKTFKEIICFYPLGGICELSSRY
- Test Description: Antagonist activity at mouse melanocortin receptor 4 expressed in HEK293 cells assessed as inhibition of NDP-MSH-induced intracellular cAMP accumulation incubated for 24 hrs by beta-galactosidase reporter gene assay
- Type: functional, cell-based
- Particulars: read-out: pA2 (converted)
Readout Name: Kb (µM)

These solved cases illustrate the format of a correct answer.
* CC(C)[C@@H]1CNC(=N)N1C[C@@H]1CCCN1C[C@@H](Cc1ccccc1)N1C[C@@H]([C@@H](C)O)N(CC23CC4CC(CC(C4)C2)C3)C1=N | 1.58
* CC(C)[C@@H]1CNC(=N)N1C[C@@H]1CCCN1C[C@@H](CC1CCCCC1)N1C[C@@H]([C@@H](C)O)N(CC23CC4CC(CC(C4)C2)C3)C1=N | 1.58
* CC(C)[C@@H]1CNC(=N)N1C[C@@H]1CCCN1C[C@@H](CC1CCCCC1)N1C[C@@H]([C@@H](C)O)N(CC2CCC(C(C)(C)C)CC2)C1=N (some centres not stated) | 1.26
* CC(C)C[C@@H]1CNC(=N)N1C[C@@H]1CCCN1C[C@@H](CC1CCCCC1)N1C[C@@H](C(C)C)N(CC2CCC(C(C)(C)C)CC2)C1=N (some centres not stated) | 3.16
* CCC[C@@H]1CN([C@H](CC2CCCCC2)CN2CCC[C@H]2CN2C(=N)NC[C@H]2C(C)C)C(=N)N1CC1CCC(C(C)(C)C)CC1 (some centres not stated) | 1.58

(a) CC(C)C[C@@H]1CNC(=N)N1C[C@@H]1CCCN1C[C@@H](Cc1ccccc1)N1C[C@@H]([C@@H](C)O)N(CC23CC4CC(CC(C4)C2)C3)C1=N
(b) CC(C)[C@@H]1CNC(=N)N1C[C@@H]1CCCN1C[C@@H](Cc1ccccc1)N1C[C@@H]([C@@H](C)O)N(CC2CCC(C(C)(C)C)CC2)C1=N (some centres not stated)
[Q] Between the entries labeled a and b , whose measured Kb is lower? To answer, give the label that identifies your chosen option.
[A] b
(b: 0.316 µM, a: 1.58 µM)

====

- Target Entity: Melanocortin receptor 4 (Mus musculus)
- Test Description: Agonist activity at mouse melanocortin receptor 4 expressed in HEK293 cells assessed as stimulation of intracellular cAMP accumulation at 10 uM incubated for 24 hrs by beta-galactosidase reporter gene assay relative to control
- Format: functional, cell-based
Readout Name: Emax (%)

• CCC[C@@H]1CN([C@H](Cc2ccccc2)CN2CCC[C@H]2CN2C(=N)NC[C@H]2CC(C)C)C(=N)N1CC1CCC(C(C)(C)C)CC1 (some centres undefined) = 28
• CCC[C@@H]1CN([C@H](Cc2ccccc2)CN2CCC[C@H]2CN2C(=N)NC[C@H]2C(C)C)C(=N)N1CC1CCC(C(C)(C)C)CC1 (some centres undefined) = 27
• CC(C)[C@@H]1CNC(=N)N1C[C@@H]1CCCN1C[C@@H](CC1CCCCC1)N1C[C@@H](C(C)C)N(CC2CCC(C(C)(C)C)CC2)C1=N (some centres undefined) = 28
• CC(C)CCCN1C(=N)N([C@H](Cc2ccccc2)CN2CCC[C@H]2CN2C(=N)NC[C@H]2C(C)C)C[C@H]1C(C)C = 21

====

- Target Entity: Melanocortin receptor 4 (Mus musculus, UniProt P56450)
- Test Description: Agonist activity at mouse melanocortin receptor 4 expressed in HEK293 cells assessed as stimulation of intracellular cAMP accumulation incubated for 24 hrs by beta-galactosidase reporter gene assay
- Format: functional, cell-based
Readout Name: EC50 (nM)

These recorded examples may help you get a feel for the data.
* CC(C)C[C@@H]1CNC(=N)N1C[C@@H]1CCCN1C[C@@H](CC1CCCCC1)N1C[C@@H]([C@@H](C)O)N(CC2CCC(C(C)(C)C)CC2)C1=N (stereo not given in full) | 270
* CSCC[C@H](NC(=O)[C@H](CO)NC(=O)[C@H](Cc1ccc(O)cc1)NC(=O)[C@@H](N)CO)C(=O)N[C@@H](CCC(=O)O)C(=O)N[C@@H](Cc1c[nH]cn1)C(=O)N[C@@H](Cc1ccccc1)C(=O)N[C@@H](CCCN=C(N)N)C(=O)N[C@@H](Cc1c[nH]c2ccccc12)C(=O)NCC(=O)N[C@@H](CCCCN)C(=O)N1CCC[C@H]1C(=O)N[C@H](C(=O)O)C(C)C | 1.6

(1) CCC[C@@H]1CN([C@H](Cc2ccccc2)CN2CCC[C@H]2CN2C(=N)NC[C@H]2CC(C)C)C(=N)N1CC12CC3CC(CC(C3)C1)C2
(2) O=C(N[C@@H](Cc1ccc(Cl)cc1)C(=O)N1CCC(Cn2cncn2)(C2CCCCC2)CC1)[C@H]1Cc2ccccc2CN1
(3) CCC[C@@H]1CN([C@H](CC2CCCCC2)CN2CCC[C@H]2CN2C(=N)NC[C@H]2CC(C)C)C(=N)N1CCCC(C)C
[Q] // ranking: key=EC50, reverse=True Respond with the label ranking, as requested.
[A] 3, 1, 2
(3: 6700 nM, 1: 1330 nM, 2: 0.9 nM)

====

- Target Entity: Melanocortin receptor 4 (Mus musculus, UniProt P56450)
- Test Description: Agonist activity at mouse melanocortin receptor 4 expressed in HEK293 cells assessed as stimulation of intracellular cAMP accumulation incubated for 24 hrs by beta-galactosidase reporter gene assay
Readout Name: EC50 (µM)

(P) CC(C)C[C@@H]1CNC(=N)N1C[C@@H]1CCCN1C[C@@H](CC1CCCCC1)N1C[C@@H]([C@@H](C)O)N(CC23CC4CC(CC(C4)C2)C3)C1=N
(Q) CC(C)C[C@@H]1CNC(=N)N1C[C@@H]1CCCN1C[C@@H](Cc1ccccc1)N1C[C@@H](C(C)C)N(CC23CC4CC(CC(C4)C2)C3)C1=N
[Q] Hi there! Just curious which has the higher EC50 between P and Q . Please indicate the selected item by its label.
[A] Q

====

- Target Entity: Melanocortin receptor 5 (Mus musculus, UniProt P41149)
- Sequence (P41149 whole entry): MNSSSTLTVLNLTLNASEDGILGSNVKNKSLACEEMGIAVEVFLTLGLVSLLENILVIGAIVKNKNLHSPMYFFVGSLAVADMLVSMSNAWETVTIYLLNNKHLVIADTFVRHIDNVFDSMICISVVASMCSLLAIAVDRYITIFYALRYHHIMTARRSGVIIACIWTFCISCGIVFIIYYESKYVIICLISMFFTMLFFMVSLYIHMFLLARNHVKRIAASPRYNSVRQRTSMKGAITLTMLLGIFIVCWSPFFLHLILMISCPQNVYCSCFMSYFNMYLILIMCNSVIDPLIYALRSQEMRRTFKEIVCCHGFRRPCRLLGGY
- Test Description: Agonist activity at mouse melanocortin receptor 5 expressed in HEK293 cells assessed as stimulation of intracellular cAMP accumulation incubated for 24 hrs by beta-galactosidase reporter gene assay
pEC50: −log10 of the molar value.
Readout Name: pEC50

These solved cases illustrate the format of a correct answer.
* CCC[C@@H]1CN([C@H](CC2CCCCC2)CN2CCC[C@H]2CN2C(=N)NC[C@H]2CC(C)C)C(=N)N1CC12CC3CC(CC(C3)C1)C2 | 6.33
* CSCC[C@H](NC(=O)[C@H](CO)NC(=O)[C@H](Cc1ccc(O)cc1)NC(=O)[C@@H](N)CO)C(=O)N[C@@H](CCC(=O)O)C(=O)N[C@@H](Cc1c[nH]cn1)C(=O)N[C@@H](Cc1ccccc1)C(=O)N[C@@H](CCCN=C(N)N)C(=O)N[C@@H](Cc1c[nH]c2ccccc12)C(=O)NCC(=O)N[C@@H](CCCCN)C(=O)N1CCC[C@H]1C(=O)N[C@H](C(=O)O)C(C)C | 9.15
* CC(C)[C@@H]1CNC(=N)N1C[C@@H]1CCCN1C[C@@H](Cc1ccccc1)N1C[C@@H]([C@@H](C)O)N(CC2CCC(C(C)(C)C)CC2)C1=N (stereo not given in full) | 6.31

(I) CCC[C@@H]1CN([C@H](CC2CCCCC2)CN2CCC[C@H]2CN2C(=N)NC[C@H]2C(C)C)C(=N)N1CC1CCC(C(C)(C)C)CC1 (stereo not given in full)
(II) CC(C)C[C@@H]1CNC(=N)N1C[C@@H]1CCCN1C[C@@H](CC1CCCCC1)N1C[C@@H]([C@@H](C)O)N(CC2CCC(C(C)(C)C)CC2)C1=N (stereo not given in full)
[Q] Hi there! Just curious which has the higher pEC50 between I and II . Please identify the chosen entry by its label.
[A] II
(II: 6.85, I: 6.27)
